Assay: Peptide stability in simulated intestinal fluid (SIF)
Assay type: in vitro ADME
Details: pig, SAR tables, % peptide remaining, 37 °C, porcine pancreatin, pH 6.8, 4 h, read-out: SIF (% after 4 h)
# key: entry, value: remaining at 4 h, 10 µM
Please give a number only; it is taken to be in %.

[[record]]
mol_smiles = "CC[C@H](C)[C@@H]1NC(=O)[C@@H]2CCCCNC(=O)CC[C@@H](C(=O)N[C@H](Cc3cnc[nH]3)C(=O)N[C@@H](Cc3cccnc3)C(=O)NC)NC(=O)[C@](C)(CC(C)C)NC(=O)[C@H](Cc3ccc4ccccc4c3)NC(=O)[C@H](Cc3ccc(OCCN)cc3)NC(=O)[C@H](CCC(=O)N2)NC(=O)[C@H](CCC(N)=O)NC(=O)[C@H](Cc2c[nH]c3ccccc23)NC(=O)[C@H](C(C)C)NC1=O"
quantity_kind = "remaining at 4 h, 10 µM"
unit_name = "%"
endpoint_value = 72

[[record]]
mol_smiles = "CC[C@H](C)[C@@H]1NC(=O)[C@@H]2CCCCNC(=O)CC[C@@H](C(=O)N[C@@H](Cc3cnc4ccccc4c3)C(=O)N[C@@H](Cc3cccnc3)C(=O)NC)NC(=O)[C@](C)(CC(C)C)NC(=O)[C@H](Cc3ccc4ccccc4c3)NC(=O)[C@H](Cc3ccc(OCCN)cc3)NC(=O)[C@H](CCC(=O)N2)NC(=O)[C@H](CCC(N)=O)NC(=O)[C@H](Cc2c[nH]c3ccccc23)NC(=O)[C@H](C(C)C)NC1=O"
quantity_kind = "remaining at 4 h, 10 µM"
unit_name = "%"
endpoint_value = 6

[[record]]
mol_smiles = "CC[C@H](C)[C@@H]1NC(=O)[C@@H]2CCCCNC(=O)CC[C@@H](C(=O)N[C@@H](CCN)C(=O)N[C@@H](Cc3cccnc3)C(=O)NC)NC(=O)CNC(=O)[C@H](Cc3ccc4ccccc4c3)NC(=O)[C@H](Cc3ccc(OCCN)cc3)NC(=O)[C@H](CCC(=O)N2)NC(=O)[C@H](CCC(N)=O)NC(=O)[C@H](Cc2c[nH]c3ccccc23)NC(=O)[C@H](C(C)C)NC1=O"
quantity_kind = "remaining at 4 h, 10 µM"
unit_name = "%"
endpoint_value = 0


Please look at the following compound next.
In: Field request: remaining at 4 h, 10 µM | item: CC[C@H](C)[C@@H]1NC(=O)[C@@H]2CCCCNC(=O)CC[C@@H](C(=O)N[C@@H](Cc3cnc[nH]3)C(=O)N[C@@H](Cc3cccnc3)C(=O)NC)NC(=O)[C@](C)(CC(C)C)NC(=O)[C@H](Cc3ccc4ccccc4c3)NC(=O)[C@H](Cc3ccc(OCCN)cc3)NC(=O)[C@H](CCC(=O)N2)NC(=O)[C@H](CCC(N)=O)NC(=O)[C@H](Cc2c[nH]c3ccccc23)NC(=O)[C@H](C(C)C)NC1=O
Out: 33
